system: 422866-222-R5-J1-PDC complex spheroids viability; assay: Anticancer human tumor 422866-222-R5-J1-PDC patient-derived pancreatic adenocarcinoma cell line growth inhibition [RAS]; settings: second compound 0.1 µM; first compound 1 µM; hits give low values
Lab note: anything with viability, T/C below 30% is marked Satisfied; values at 30% or higher are marked Not satisfied.

Compound: Cc1nc(N2CCC3(CC2)COC(C)C3N)c(CO)nc1Sc1ccnc(N)c1Cl (stereo not drawn) + C#Cc1c(F)ccc2cc(O)cc(-c3ncc4c(N5CC6CCC(C5)N6)nc(OCC56CCCN5CC(F)C6)nc4c3F)c12
Assigned category: Not satisfied
//
Compound: CC(=O)OC12COC1CC(O)C1(C)C(=O)C(O)C3=C(C)C(OC(=O)C(O)C(NC(=O)OC(C)(C)C)c4ccccc4)CC(O)(C(OC(=O)c4ccccc4)C21)C3(C)C (stereo not drawn) + C=CC(=O)N1CCN(c2nc(OCC3CCCN3C)nc3c(F)c(-c4nc(N)cc(C)c4C(F)(F)F)c(Cl)cc23)C(C)C1
Assigned category: Satisfied
//
Compound: CC(Nc1ccc2c(c1)OCCn1cc(N3C(=O)OCC3C(F)F)nc1-2)C(N)=O (stereo not drawn) + C=CC(=O)N1CCN(c2nc(OCC3CCCN3C)nc3c(F)c(-c4nc(N)cc(C)c4C(F)(F)F)c(Cl)cc23)C(C)C1
Assigned category: Satisfied
//
Compound: CCC(CC)c1cc(NC2CCC(N)C2)n2nccc2n1 (stereo not drawn) + C#Cc1c(F)ccc2cc(O)cc(-c3ncc4c(N5CC6CCC(C5)N6)nc(OCC56CCCN5CC(F)C6)nc4c3F)c12
Assigned category: Not satisfied
//
Compound: C[C@@H](NC(=O)c1ncnc(N)c1Cl)c1ncc(C(=O)Nc2cc(C(F)(F)F)c(Cl)cn2)s1 + C#Cc1c(F)ccc2cc(O)cc(-c3ncc4c(N5CC6CCC(C5)N6)nc(OCC56CCCN5CC(F)C6)nc4c3F)c12
Assigned category: Not satisfied
//
Compound: CCN1CCN(Cc2ccc(Nc3ncc(F)c(-c4cc(F)c5nc(C)n(C(C)C)c5c4)n3)nc2)CC1 + C#Cc1c(F)ccc2cc(O)cc(-c3ncc4c(N5CC6CCC(C5)N6)nc(OCC56CCCN5CC(F)C6)nc4c3F)c12
Assigned category: Not satisfied
//
Compound: NC1c2ccccc2OC12CCN(c1cnc3c(N4CCCc5ncccc54)n[nH]c3n1)CC2 (stereo not drawn) + C#Cc1c(F)ccc2cc(O)cc(-c3ncc4c(N5CC6CCC(C5)N6)nc(OCC56CCCN5CC(F)C6)nc4c3F)c12
Assigned category: Satisfied
//
Compound: C=CC(=O)Nc1cc(Nc2nccc(-c3cn(C)c4ccccc34)n2)c(OC)cc1N(C)CCN(C)C + C=CC(=O)N1CCN(c2nc(OCC3CCCN3C)nc3c(F)c(-c4nc(N)cc(C)c4C(F)(F)F)c(Cl)cc23)C(C)C1
Assigned category: Satisfied

* * *

system: 422866-222-R5-J1-PDC complex spheroids viability; assay: Anticancer human tumor 422866-222-R5-J1-PDC cell line growth inhibition [RAS]; details: second compound 3.16 µM; first compound 0.0316 µM; hits give low values;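 also: spheroids exposed to compounds for 7 days; 100% = DMSO vehicle control viability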

Molecule: CC(Nc1ccc2c(c1)OCCn1cc(N3C(=O)OCC3C(F)F)nc1-2)C(N)=O (stereo not given) + C#Cc1c(F)ccc2cc(O)cc(-c3ncc4c(N5CC6CCC(C5)N6)nc(OCC56CCCN5CC(F)C6)nc4c3F)c12
Assayed system: 422866-222-R5-J1-PDC complex spheroids viability
Unit abbrev: %
viability, T/C: 22.2
--
Molecule: CC1(O)CCCC1n1c(=O)c(C(F)F)cc2cnc(NC3CCN(S(C)(=O)=O)CC3)nc21 (stereo not given) + C#Cc1c(F)ccc2cc(O)cc(-c3ncc4c(N5CC6CCC(C5)N6)nc(OCC56CCCN5CC(F)C6)nc4c3F)c12
Assayed system: 422866-222-R5-J1-PDC complex spheroids viability
Unit abbrev: %
viability, T/C: 29.6
--
Molecule: CCC(CC)c1cc(NC2CCC(N)C2)n2nccc2n1 (stereo not given) + C#Cc1c(F)ccc2cc(O)cc(-c3ncc4c(N5CC6CCC(C5)N6)nc(OCC56CCCN5CC(F)C6)nc4c3F)c12
Assayed system: 422866-222-R5-J1-PDC complex spheroids viability
Unit abbrev: %
viability, T/C: 35.6
--
Molecule: Cc1nc(N2CCC3(CC2)COC(C)C3N)c(CO)nc1Sc1ccnc(N)c1Cl (stereo not given) + C#Cc1c(F)ccc2cc(O)cc(-c3ncc4c(N5CC6CCC(C5)N6)nc(OCC56CCCN5CC(F)C6)nc4c3F)c12
Assayed system: 422866-222-R5-J1-PDC complex spheroids viability
Unit abbrev: %
viability, T/C: 24.5
--
Molecule: CC(=O)OC12COC1CC(O)C1(C)C(=O)C(O)C3=C(C)C(OC(=O)C(O)C(NC(=O)OC(C)(C)C)c4ccccc4)CC(O)(C(OC(=O)c4ccccc4)C21)C3(C)C (stereo not given) + C#Cc1c(F)ccc2cc(O)cc(-c3ncc4c(N5CC6CCC(C5)N6)nc(OCC56CCCN5CC(F)C6)nc4c3F)c12
Assayed system: 422866-222-R5-J1-PDC complex spheroids viability
Unit abbrev: %
viability, T/C: 21.2
